Values compiled from PubChem BioAssay AID1159580.

- assay.comment: chemical genetic growth profiling, strain panel (AID 1159580);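 also: tested at 20 µM; growth read once vehicle control cultures reached saturation at 30 °C; 1 = growth at the plate median or of vehicle wells; lower values mean less growth of the strain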
- run.conditions: S. cerevisiae deletion strains, growth OD, locus YDR502C, strain sam2
Out of some 5,500 compounds screened, about 2,000 (36%) were called active. Another 18% or so got no clear call; they are omitted. Rule as the data show it: active = normalized growth mostly below about 0.91 (no sharp cut-off); inconclusive = no clear call, values can overlap the other calls; inactive = mostly above about 0.92. Some of the results follow.
Outcomes you can answer with include only these: active, inactive

Solved entries:
[
  {
    "compound": "COc1c(O)cc(O)cc1O",
    "qualitative.label": "inactive"
  },
  {
    "compound": "CC(C)CCCC(C)C1CCC2C3CCC4CC(=O)CCC4(C)C3CCC12C (stereo not given)",
    "qualitative.label": "inactive"
  },
  {
    "compound": "COc1ccc2c(c1)[nH]c1c(C)nccc12",
    "qualitative.label": "inactive"
  }
]

// param item: CCCc1nc(C(C)(C)O)c(C(=O)OCc2oc(=O)oc2C)n1Cc1ccc(-c2ccccc2-c2nn[nH]n2)cc1 ; yields the recorded call
inactive

// param item: CC(C)=CCOc1cc2oc(=O)ccc2cc1O ; yields the recorded call
active

// param item: c1ccc2c(c1)[nH]c1cnccc12 ; yields the recorded call
inactive

// param item: C[C@]12CCC3C(CC[C@H]4CC(=O)CC[C@]34C)C1CCC2=O (stereo not given in full) ; yields the recorded call
active

---

- assay.comment: chemical genetic growth profiling, strain panel (AID 1159580);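 also: tested at 20 µM; growth read once vehicle control cultures reached saturation at 30 °C; 1 = growth at the plate median or of vehicle wells; lower values mean less growth of the strain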
- run.conditions: S. cerevisiae deletion strains, growth OD, locus YEL037C, strain rad23, stronger effect = lower value
The whole screen tested about 5,500 compounds, of which about 2,000 (36%) were called active. Roughly 18% stayed inconclusive and do not appear here. The list shows a part of the results.
measurement.name: normalized growth
Reply with the value as a number alone.

Past entries and their recorded results:
[
  {
    "chemical.string": "c1coc(CNc2ncnc3nc[nH]c23)c1",
    "recorded.number": 0.998
  },
  {
    "chemical.string": "Cc1cccc(N(C)C(=S)Oc2ccc3ccccc3c2)c1",
    "recorded.number": 0.99
  },
  {
    "chemical.string": "CCCCC(=O)N(Cc1ccc(-c2ccccc2-c2nn[nH]n2)cc1)[C@H](C(=O)O)C(C)C",
    "recorded.number": 0.987
  }
]

# next compound below
Fill in: normalized growth of COc1c(O)cc(O)cc1O is ___
1

---

- assay.comment: chemical genetic growth profiling, strain panel (AID 1159580);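 also: tested at 20 µM; growth read once vehicle control cultures reached saturation at 30 °C; 1 = growth at the plate median or of vehicle wells; lower values mean less growth of the strain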
- run.conditions: S. cerevisiae deletion strains, growth OD, locus YNL233W, strain BNI4, stronger effect = lower value
The whole screen tested about 5,500 compounds, of which about 2,000 (36%) were called active. Not shown: some 18% with an inconclusive outcome. Some of the results follow.
measurement.name: normalized growth
Reply with the value as a number alone.

Past entries and their recorded results:
[
  {
    "compound": "C/C=C(\\C)C(=O)OC1[C@@H]2C=C3C4CC(=O)O[C@@H](c5ccoc5)[C@]4(C)CCC3[C@@](C)(C2=O)[C@@H](C(O)C(=O)OC)C1(C)C (some centres not stated)",
    "normalized growth": 1.05
  },
  {
    "compound": "Fc1ccc(C(c2ccc(F)cc2)N2CCN(C/C=C/c3ccccc3)CC2)cc1",
    "normalized growth": 0.981
  },
  {
    "compound": "Cc1cc(C)nc(NS(=O)(=O)c2ccc(N)cc2)n1",
    "normalized growth": 0.997
  },
  {
    "compound": "CCCCC/C=C\\C/C=C\\C/C=C\\C/C=C\\CCCC(=O)O",
    "normalized growth": 0.981
  },
  {
    "compound": "O=c1ccc2cc(O[C@@H]3O[C@H](CO)[C@@H](O)[C@H](O)[C@H]3O)c(O)cc2o1",
    "normalized growth": 1.01
  },
  {
    "compound": "COc1cc2ccc(=O)oc2c(OC)c1OC",
    "normalized growth": 1.01
  }
]

Fill in: normalized growth of CSCCC(NC=O)C(=O)NC(CC(C)C)C(=O)NC(Cc1ccccc1)C(=O)O (configuration not stated) is ___
1.02

Fill in: normalized growth of N#C/C(=C\c1ccc(O)cc1)C(=O)O is ___
0.997

Fill in: normalized growth of CC(=O)OC1CCC23C(=O)OC45CCC(C6=CC(=O)OC6)C4(C)CCC2C5CCC3(O)C1 (configuration not stated) is ___
1.05

Fill in: normalized growth of Cn1c(=O)[nH]c(=O)c2[nH]cnc21 is ___
0.981

Fill in: normalized growth of COc1cc2ccc(=O)oc2c(O)c1O is ___
1

Fill in: normalized growth of CC(=O)O[C@@H]1CC2C(C)(C)C(=O)[C@@H]3O[C@@H]3[C@]2(C)C2CC[C@]3(C)C(=CC(=O)O[C@H]3c3ccoc3)[C@@]21C (some centres not stated) is ___
1.03

Fill in: normalized growth of COc1ccc2c(=O)c(CC(=O)O)coc2c1 is ___
1

Fill in: normalized growth of COc1ccc(Cc2nccc3cc(OC)c(OC)cc23)cc1OC is ___
1.02

Fill in: normalized growth of O=c1c(-c2ccc3c(c2)OCO3)coc2cc(O)ccc12 is ___
0.997

Fill in: normalized growth of CC(C)=CCOc1cc2oc(=O)ccc2cc1O is ___
0.792

Fill in: normalized growth of CC(C)(O)CC[C@@H](O)[C@](C)(O)C1CC[C@@]2(O)C3=CC(=O)C4C[C@@H](O)[C@@H](O)C[C@]4(C)C3CC[C@]12C (some centres not stated) is ___
1.03

Fill in: normalized growth of COc1ccc2ccc(=O)oc2c1CC=C(C)C is ___
0.567

Fill in: normalized growth of NCCS is ___
1.02

Fill in: normalized growth of CNC(=O)CSP(=S)(OC)OC is ___
0.991

Fill in: normalized growth of O=c1n(CCCN2CCN(c3cccc(Cl)c3)CC2)nc2ccccn12 is ___
0.956

Fill in: normalized growth of CCCC(=O)Nc1ncnc2c1ncn2C1O[C@@H]2COP(=O)(O)O[C@H]2[C@H]1OC(=O)CCC (some centres not stated) is ___
0.999
